The reported measurements were obtained from ChEMBL document CHEMBL3286099.

Tested on: B16-F0
Procedure Summary: Extracellular melanogenesis-stimulating activity in mouse B16F0 cells at 6.25 uM after 72 hrs by spectrophotometry relative to control
Type: functional
Here, each record is paired with measured Activity data.
Measured Endpoint: Activity (%)

| Smi | Measured Endpoint | Recorded Number |
| --- | --- | --- |
| COc1ccc(-c2oc3cc(O)cc(O)c3c(=O)c2O)cc1O | Activity | 97.5 |
| COc1cc(O)c2c(=O)c(O)c(-c3ccc(O)c(O)c3)oc2c1 | Activity | 105.5 |
| COc1cc(O)c2c(=O)c(OC)c(-c3ccc(O)c(O)c3)oc2c1 | Activity | 222.8 |
| COc1cc(O)c2c(=O)c(O)c(-c3ccc(OC)c(O)c3)oc2c1 | Activity | 100.5 |
| COc1cc(O)c2c(=O)c(OC)c(-c3ccc(OC)c(O)c3)oc2c1 | Activity | 225.5 |

###

Procedure Summary: Cytotoxicity against mouse B16F0 cells assessed as cell viability at 50 uM after 72 hrs by MTT assay
Assay type: cell-based
Conditions Used: read-out: Activity
Measured Endpoint: viability at 72 h, 50 µM

| Compound | Result |
| --- | --- |
| COc1c(-c2ccc(O)c(O)c2)oc2cc(O)cc(O)c2c1=O [3-O-METHYLQUERCETIN] | 74.4% |
| CC(=O)Oc1c(-c2ccc(O)c(O)c2)oc2cc(O)cc(O)c2c1=O | 110% |
| CC(=O)OC[C@H]1O[C@@H](Oc2c(-c3ccc(O)c(O)c3)oc3cc(O)cc(O)c3c2=O)[C@H](OC(C)=O)[C@@H](OC(C)=O)[C@@H]1OC(C)=O | 104% |

###

Tested on: B16-F0
Procedure Summary: Extracellular melanogenesis-stimulating activity in mouse B16F0 cells at 12.5 uM after 72 hrs by spectrophotometry relative to control
Format: functional
Here, each record is paired with measured Activity data.

| Compound | Experimental System | Activity [%] |
| --- | --- | --- |
| COc1cc(O)c2c(=O)c(OC)c(-c3ccc(OC)c(O)c3)oc2c1 [AYANIN] | B16-F0 | 228 |
| CC(=O)Oc1c(-c2ccc(O)c(O)c2)oc2cc(O)cc(O)c2c1=O | B16-F0 | 87.6 |
| CC(=O)OC[C@H]1O[C@@H](Oc2c(-c3ccc(O)c(O)c3)oc3cc(O)cc(O)c3c2=O)[C@H](OC(C)=O)[C@@H](OC(C)=O)[C@@H]1OC(C)=O | B16-F0 | 89.3 |

###

Procedure Summary: Cytotoxicity against mouse B16F0 cells assessed as cell viability at 125 uM after 72 hrs by MTT assay
Type: cell-based
Conditions Used: read-out: Activity

| Smi | viability at 72 h, 125 µM |
| --- | --- |
| Cn1c(=O)c2nc[nH]c2n(C)c1=O.O | 95.5% |

###

Procedure Summary: Cytotoxicity against mouse B16F0 cells assessed as cell viability at 100 uM after 72 hrs by MTT assay
Assay type: cell-based
Conditions Used: read-out: Activity
Here, each record is paired with measured viability at 72 h, 100 µM data.

| Smi | Unit Spec | viability at 72 h, 100 µM |
| --- | --- | --- |
| O=c1c(O[C@@H]2O[C@H](CO)[C@@H](O[C@@H]3O[C@H](CO)[C@@H](O)[C@H](O)[C@H]3O)[C@H](O)[C@H]2O)c(-c2ccc(O[C@@H]3O[C@H](CO)[C@@H](O)[C@H](O)[C@H]3O)c(O)c2)oc2cc(O)cc(O)c12 | % | 86.8 |
| O=c1c(O[C@@H]2O[C@H](CO)[C@@H](O[C@@H]3O[C@H](CO)[C@@H](O)[C@H](O)[C@H]3O)[C@H](O)[C@H]2O)c(-c2ccc(O)c(O)c2)oc2cc(O)cc(O)c12 | % | 93.2 |
| O=c1c(O[C@@H]2O[C@H](CO)[C@@H](O)[C@H](O)[C@H]2O)c(-c2ccc(O)c(O)c2)oc2cc(O)cc(O)c12 | % | 80.9 |

###

Here, each record is paired with measured viability at 72 h, 12.5 µM data.
Procedure Summary: Cytotoxicity against mouse B16F0 cells assessed as cell viability at 12.5 uM after 72 hrs by MTT assay
Assay type: cell-based
Conditions Used: read-out: Activity

| Smi | viability at 72 h, 12.5 µM [%] |
| --- | --- |
| COc1ccc(-c2oc3cc(O)cc(O)c3c(=O)c2O)cc1O | 103 |
| CC(=O)Oc1c(-c2ccc(O)c(O)c2)oc2cc(O)cc(O)c2c1=O | 110 |
| COc1cc(O)c2c(=O)c(OC)c(-c3ccc(OC)c(O)c3)oc2c1 | 102 |
| COc1cc(O)c2c(=O)c(O)c(-c3ccc(O)c(O)c3)oc2c1 | 99.4 |
| CC(=O)OC[C@H]1O[C@@H](Oc2c(-c3ccc(O)c(O)c3)oc3cc(O)cc(O)c3c2=O)[C@H](OC(C)=O)[C@@H](OC(C)=O)[C@@H]1OC(C)=O | 114 |
| COc1cc(O)c2c(=O)c(O)c(-c3ccc(OC)c(O)c3)oc2c1 | 101 |
| COc1cc(O)c2c(=O)c(OC)c(-c3ccc(O)c(O)c3)oc2c1 | 60.4 |
| COc1c(-c2ccc(O)c(O)c2)oc2cc(O)cc(O)c2c1=O | 98.2 |

###

Procedure Summary: Cytotoxicity against mouse B16F0 cells assessed as cell viability at 25 uM after 72 hrs by MTT assay
Format: cell-based
Conditions Used: read-out: Activity
Here, each record is paired with measured viability at 72 h, 25 µM data.

| Molecule | Unit Spec | viability at 72 h, 25 µM |
| --- | --- | --- |
| CC(=O)OC[C@H]1O[C@@H](Oc2c(-c3ccc(O)c(O)c3)oc3cc(O)cc(O)c3c2=O)[C@H](OC(C)=O)[C@@H](OC(C)=O)[C@@H]1OC(C)=O | % | 102 |
| CC(=O)Oc1c(-c2ccc(O)c(O)c2)oc2cc(O)cc(O)c2c1=O | % | 120 |
| COc1cc(O)c2c(=O)c(O)c(-c3ccc(OC)c(O)c3)oc2c1 [OMBUINE] | % | 101 |
| COc1cc(O)c2c(=O)c(OC)c(-c3ccc(O)c(O)c3)oc2c1 | % | 54.1 |
| COc1ccc(-c2oc3cc(O)cc(O)c3c(=O)c2O)cc1O [TAMARIXETIN] | % | 101 |
| COc1c(-c2ccc(O)c(O)c2)oc2cc(O)cc(O)c2c1=O [3-O-METHYLQUERCETIN] | % | 88.1 |
| COc1cc(O)c2c(=O)c(OC)c(-c3ccc(OC)c(O)c3)oc2c1 [AYANIN] | % | 90.2 |
| COc1cc(O)c2c(=O)c(O)c(-c3ccc(O)c(O)c3)oc2c1 [RHAMNETIN] | % | 91.6 |

###

Here, each record is paired with measured viability at 72 h, 10 µM data.
Procedure Summary: Cytotoxicity against mouse B16F0 cells assessed as cell viability at 10 uM after 72 hrs by MTT assay
Format: cell-based
Conditions Used: read-out: Activity
Measured Endpoint: viability at 72 h, 10 µM

| Molecule | Result |
| --- | --- |
| O=c1c(O[C@@H]2O[C@H](CO)[C@@H](O[C@@H]3O[C@H](CO)[C@@H](O)[C@H](O)[C@H]3O)[C@H](O)[C@H]2O)c(-c2ccc(O)c(O)c2)oc2cc(O)cc(O)c12 | 99.6% |
| O=c1c(O[C@@H]2O[C@H](CO)[C@@H](O[C@@H]3O[C@H](CO)[C@@H](O)[C@H](O)[C@H]3O)[C@H](O)[C@H]2O)c(-c2ccc(O[C@@H]3O[C@H](CO)[C@@H](O)[C@H](O)[C@H]3O)c(O)c2)oc2cc(O)cc(O)c12 | 90% |
| O=c1c(O[C@@H]2O[C@H](CO)[C@@H](O)[C@H](O)[C@H]2O)c(-c2ccc(O)c(O)c2)oc2cc(O)cc(O)c12 [ISOQUERCETIN] | 105% |

###

Here, each record is paired with measured Activity data.
System: B16-F0
Procedure Summary: Extracellular melanogenesis-stimulating activity in mouse B16F0 cells at 12.5 uM after 72 hrs by spectrophotometry relative to control
Assay type: functional
Measured Endpoint: Activity (%)

| Smi | Measured Endpoint | Unit Spec | Recorded Number |
| --- | --- | --- | --- |
| COc1cc(O)c2c(=O)c(O)c(-c3ccc(O)c(O)c3)oc2c1 | Activity | % | 105.2 |
| COc1c(-c2ccc(O)c(O)c2)oc2cc(O)cc(O)c2c1=O | Activity | % | 124.1 |
| COc1cc(O)c2c(=O)c(O)c(-c3ccc(OC)c(O)c3)oc2c1 | Activity | % | 98 |
| COc1cc(O)c2c(=O)c(OC)c(-c3ccc(O)c(O)c3)oc2c1 | Activity | % | 304.3 |
| COc1ccc(-c2oc3cc(O)cc(O)c3c(=O)c2O)cc1O | Activity | % | 95.1 |
